study system: M.SssI DNMT (Spiroplasma monobiae, UniProt P15840)
Construct: purchased New England Biolabs
Sequence (P15840 whole entry): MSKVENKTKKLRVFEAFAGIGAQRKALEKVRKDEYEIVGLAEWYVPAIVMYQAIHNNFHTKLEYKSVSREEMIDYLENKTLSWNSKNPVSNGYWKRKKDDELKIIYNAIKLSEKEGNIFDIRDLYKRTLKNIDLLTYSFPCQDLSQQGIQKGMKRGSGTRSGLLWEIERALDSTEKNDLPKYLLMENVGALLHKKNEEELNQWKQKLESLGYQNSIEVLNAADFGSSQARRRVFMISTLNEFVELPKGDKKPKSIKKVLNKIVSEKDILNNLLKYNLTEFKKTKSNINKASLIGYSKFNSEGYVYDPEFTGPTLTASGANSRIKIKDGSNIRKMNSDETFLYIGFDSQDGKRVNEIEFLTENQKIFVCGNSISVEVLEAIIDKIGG
test method notes: Compound selectivity, endonuclease-coupled DNA methylation assay
Format: biochemical, bacterial
condition description: 1.25 h; 20 µM inhibitor, 20 nM methyltransferase, 0.25 mM SAM; read-out: Percent activity, M.SssI DNMT
property: remaining activity at 20 µM (%)
Record the value in %, omitting the unit from your answer.

{"compound": "CSc1nc2cc(Cl)c(Oc3cccc(Cl)c3Cl)cc2[nH]1 [Cmpd 29, triclabendazole]", "remaining activity at 20 µM, %": 19}
{"compound": "O=C(O)c1cc(O)c2c(c1)[C@@H]([C@@H]1c3cc(C(=O)O)cc(O)c3C(=O)c3c(O[C@H]4O[C@H](CO)[C@@H](O)[C@H](O)[C@H]4O)cccc31)c1cccc(O[C@H]3O[C@H](CO)[C@@H](O)[C@H](O)[C@H]3O)c1C2=O [Cmpd 36]", "remaining activity at 20 µM, %": 40}
{"compound": "Nc1ncn([C@@H]2O[C@H](CO)[C@@H](O)[C@H]2O)c(=O)n1 [5-aza-cytidine, reference compound]", "remaining activity at 20 µM, %": 100}
{"compound": "O=C1c2ccccc2C(=O)c2c1ccc(O)c2O [Cmpd 26, alizarin]", "remaining activity at 20 µM, %": 68}
{"compound": "Oc1cc(Cl)ccc1Oc1ccc(Cl)cc1Cl [Cmpd 13, triclosan]", "remaining activity at 20 µM, %": 25}

INPUT: Given the entry O=c1c(O)c(-c2ccc(O)c(O)c2)oc2c(O)c(O)cc(O)c12 [Cmpd 33] , report its measured remaining activity at 20 µM.
OUTPUT: 86

INPUT: Requested read-out: remaining activity at 20 µM. Entry: O=C(O)C(S)C(S)C(=O)O (stereo not shown) [Cmpd 51]
OUTPUT: 36

INPUT: Fill in the blank: the reported remaining activity at 20 µM of CC(=O)NCCc1ccc(O)c(-c2c(O)c(O)c3c(c2O)C(=O)c2c(cc(O)c(C(=O)O)c2C(=O)O)C3=O)c1 [Cmpd 40, Laccaic acid A] is ____.
OUTPUT: 82

INPUT: Which value of remaining activity at 20 µM has been reported for CC1/C=C/C=C/C=C/C=C/C=C/C=C/C=C/C(O[C@@H]2O[C@H](C)[C@H](O)[C@@H](O)[C@@H]2N)CC(O)C(C(=O)O)C(O)CC(=O)CC(O)CC(O)CC(O)CC(=O)CCCC(=O)CC(=O)OC1C(C)CC(C)C(O)CC(=O)c1ccc(N)cc1 (stereo partly shown) [Cmpd 24] in the records?
OUTPUT: 49

INPUT: State the recorded remaining activity at 20 µM for this entry: O=C(O)c1cc(O)c2c(c1)[C@@H]([C@H]1c3cc(C(=O)O)cc(O)c3C(=O)c3c(O[C@H]4O[C@H](CO)[C@@H](O)[C@H](O)[C@H]4O)cccc31)c1cccc(O[C@H]3O[C@H](CO)[C@@H](O)[C@H](O)[C@H]3O)c1C2=O [Cmpd 22]
OUTPUT: 20
